- System: PRKCQ
- RUN CONDITIONS: concentration: 1 μM, replicates: in singlicate; n = 1
%Inh reference
Number in %, nothing else.

Field: example entries. Status: answers known.
# MOLECULE, OBSERVED
rows = [
    ("O=C(NCCCN1CCOCC1)c1cccc(Nc2nccc(Nc3ccc(Oc4ccccc4)cc3)n2)c1 [GW663929]", 0),
    ("COc1ccc(CNC(=O)NC2CCN(c3ccnc(Nc4ccc(OC)cc4)n3)C2)cc1 (stereo not shown) [GSK1379727]", 0),
    ("COC(=O)Nc1nc2cc(Oc3ccc(NC(=O)Nc4cc(F)ccc4F)cc3)ccc2[nH]1.Cl [GW701424]", 0),
]

Any idea what its %Inh is? The molecule is COc1ccc(Nc2ncc(C#N)c(Nc3ccccc3C(N)=O)n2)cc1N1CCN(C)CC1.Cl [GSK1558669]
96.5

----------
- Test system: TNNI3K;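 note: kd values determined as follow-up on hits from a single-replicate KINOMEscan panel screen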
MEASURED PARAMETER: Kd

Any idea what its Kd is? The compound is c1ccc(-c2cc(-c3c[nH]nc3-c3ccccn3)ccn2)cc1 [GW576604]
> 10 µM

----------
%Inh reference
- System: IRAK4
- RUN CONDITIONS: concentration: 1 μM, replicates: in singlicate; n = 1
Number in %, nothing else.

Field: example entries. Status: answers known.
# MOLECULE, SYSTEM, MEASURED PARAMETER, OBSERVED
records = [
    ("c1ccc(-c2n[nH]cc2-c2ccnc3ccccc23)nc1 [GW271431]", "IRAK4", "%Inh", 6),
    ("Cc1c2ccc(N(C)c3ccnc(Nc4cccc(S(N)(=O)=O)c4)n3)cc2nn1Cc1ccccc1.Cl.Cl [GW787226]", "IRAK4", "%Inh", 0),
]

IRAK4 / %Inh / CNc1ncnc2[nH]ncc12 [SKF-18355] : value?
0

Continue with `Cc1ccc(C(=O)NCC(N)=O)cc1-n1c(C)cc(OCc2ccc(F)cc2F)c(Br)c1=O`
0

Continue with COc1cc2ncn(-c3cc(OCc4sccc4Cl)c(C(N)=O)s3)c2cc1OC [GSK448459]
4

Continue with CN(C(=O)c1ccc(-c2cc(-c3c[nH]nc3-c3ccccn3)ccn2)cc1)C1CCOCC1 [GW810083]
0

Continue with NS(=O)(=O)CCc1cccc(Nc2nccc(-c3c(-c4cccc(NC(=O)c5c(F)cccc5F)c4)nn4ccccc34)n2)c1 [GSK336735]
9

Continue with NS(=O)(=O)c1cccc(-c2ccc3nccc(-c4cccc(S(N)(=O)=O)c4)c3c2)c1 [GW867253]
0

Continue with [2H]C([2H])(c1cccc(C(F)(F)F)c1C)n1ccn2c(=O)nc(N3CCOCC3)cc12 [GSK2336394]
16

----------
- Test system: DDR2
- RUN CONDITIONS: concentration: 1 μM, replicates: in singlicate; n = 1
Label rule, in plain words: %Inh of 60% and up is T, under 60% is F.

Given the entry CC(C)Oc1ccc2c(-c3ccnc(Nc4ccc(N5CCN(C)CC5)cc4)n3)cnn2n1 [GW696155] , answer whether its %Inh meets or surpasses 60%.
T

Continue with O=c1cc(N2CCOCC2)nc2n(Cc3cccc(C(F)(F)F)c3)ccn12 [GSK2297543]
F

Continue with CNc1ncnc2[nH]ncc12 [SKF-18355]
T

Continue with Cc1c2ccc(N(C)c3ccnc(Nc4cccc(S(N)(=O)=O)c4)n3)cc2nn1Cc1ccccc1.Cl.Cl [GW787226]
T

Continue with Cl.Oc1cccc(Nc2ccnc3cc(-c4ccncc4)ccc23)c1 [GW494601]
T

Continue with COc1ccc(Nc2nccc(N3CCC(NC(=O)Nc4cc(C)ccc4C)C3)n2)cc1 (stereo not drawn) [GSK1379741]
F

Continue with COc1ccc(COc2cc(-n3cnc4ccccc43)sc2C(N)=O)cc1 [GSK1024304]
F

Continue with O=C(NCCNc1ccnc(Nc2ccc(F)cc2)n1)Nc1ccccc1F [GSK1379880]
F

Continue with `Cc1ccc(C(=O)NCC(N)=O)cc1-n1c(C)cc(OCc2ccc(F)cc2F)c(Br)c1=O`
F

----------
%Inh reference
- Tested on: AKT2
- RUN CONDITIONS: concentration: 1 μM, replicates: in singlicate; n = 1
Number in %, nothing else.

Field: example entries. Status: answers known.
# COMPOUND, SYSTEM, %Inh [%]
rows = [
    ("Nc1nc(-c2ccc3c(N)n[nH]c3c2)cc(N2CCCC2)n1", "AKT2", 3),
    ("O=c1cc(N2CCOCC2)nc2n(Cc3cccc(C(F)(F)F)c3)ccn12", "AKT2", 0),
    ("CCc1nc(-c2cccc(C)c2)c(-c2ccnc(NCc3ccccc3)c2)s1", "AKT2", 22),
    ("O=C(Nc1cccc(-c2nn3ncccc3c2-c2ccnc(Nc3cccc(C(F)(F)F)c3)n2)c1)c1c(F)cccc1F", "AKT2", 1),
    ("Cc1ccc(C(=O)NCC(N)=O)cc1-n1c(C)cc(OCc2ccc(F)cc2F)c(Br)c1=O", "AKT2", 19),
    ("CNc1ncnc2[nH]ncc12", "AKT2", 0),
    ("Fc1ccc(-c2ncn(CCCN3CCOCC3)c2-c2cccnc2)cc1", "AKT2", 0),
    ("Cc1cccc(-c2nc(-c3ccc(S(C)(=O)=O)cc3)sc2-c2ccncc2)c1", "AKT2", 20),
    ("c1ccc(-c2cc(-c3c[nH]nc3-c3ccccn3)ccn2)cc1", "AKT2", 0),
    ("CC(C)(C)n1cnc2c(N)ncnc21", "AKT2", 0),
]

Any idea what its %Inh is? The compound is Cc1nnc(-c2ccc3occ(-c4ccc(C(C)O)cc4)c3c2)o1 (stereo not drawn)
0

Continue with `Cl.Nc1ncnc2occ(-c3ccc(NC(=O)Nc4cc(C(F)(F)F)ccc4F)cc3)c12`
0

Continue with `O=C(NCCCN1CCOCC1)c1cccc(Nc2nccc(Nc3ccc(Oc4ccccc4)cc3)n2)c1`
11

----------
%Inh reference
- System: DCAMKL2
- Construct: gene DCLK2
- RUN CONDITIONS: concentration: 1 μM, replicates: in singlicate; n = 1
Number in %, nothing else.

# COMPOUND, OBSERVED
measured = [
    ("Cc1nnc(-c2ccc3ncc(-c4ccc(S(C)=O)cc4)n3c2)o1 (stereo not drawn)", 0),
    ("O=C(NCCNc1ccnc(Nc2ccc(F)cc2)n1)c1cc2ccccc2s1", 0),
    ("N#Cc1ccc(-c2cc(-c3c[nH]nc3-c3ccccn3)ccn2)cc1", 17),
    ("Fc1ccc(-c2ncn(CCCN3CCOCC3)c2-c2cccnc2)cc1", 6),
    ("CNc1ncnc2[nH]ncc12", 15),
    ("CN1c2ccc(CNc3ccc(F)cc3)cc2-c2c(cnn2C)S1(=O)=O", 0),
    ("CC(C)Oc1ccc2c(-c3ccnc(Nc4ccc(N5CCN(C)CC5)cc4)n3)cnn2n1", 91),
    ("NCC(NC(=O)c1cc(-c2cn[nH]c2)c(-c2ccnc3[nH]ccc23)s1)c1ccccc1.O=C(O)C(F)(F)F.O=C(O)C(F)(F)F (stereo not drawn)", 0),
]

Please turn your attention to the following entry.
Any idea what its %Inh is? The compound is `Cc1cccc(Cn2ccn3c(=O)cc(N4CCOCC4)nc23)c1`
14

----------
%Inh reference
- Test system: IKK-beta
- Construct: gene IKBKB
- RUN CONDITIONS: concentration: 1 μM, replicates: in singlicate; n = 1
Number in %, nothing else.

# CHEMICAL STRUCTURE, OBSERVED
measured = [
    ("COCCNC(=O)c1ccc(-c2cc(C(=O)NC3CC3)cc(F)c2C)cc1", 29),
]

Any idea what its %Inh is? The compound is `COc1ccc(COc2cc(-n3cnc4ccccc43)sc2C(N)=O)cc1`
17

Continue with `O=C1NC(=O)C(N2CCc3ccccc32)=C1c1cccc(Cl)c1`
10

Continue with `CC(=O)Nc1ccc(COc2ccc(Nc3ccnc4cc(-c5ccccn5)ccc34)cc2)cc1.Cl`
4

Continue with `N#Cc1c(N2CCOCC2)sc(-c2ccn[nH]2)c1-c1ccc(Cl)cc1`
25

Continue with `Cc1ccc(C(=O)NCC(N)=O)cc1-n1c(C)cc(OCc2ccc(F)cc2F)c(Br)c1=O`
0

Continue with `Cc1cccc(Cn2ccn3c(=O)cc(N4CCOCC4)nc23)c1`
0

Continue with `COc1cc2c(cc1OC[C@@H](O)CO)ncc1c3ccc(C#N)cc3[nH]c21`
35

Continue with `Nc1nccc(-c2c(-c3ccc(F)cc3)ncn2C2CCN(CC(F)(F)F)CC2)n1`
0

Continue with `C[C@@H](Oc1cc(-n2cnc3ccc(NC(=O)NC(C)(C)C)cc32)sc1C(N)=O)c1ccccc1Cl`
0

Continue with `Cc1cccc(-c2nc(Nc3ccc4ncsc4c3)c3ccccc3n2)n1`
0

----------
- Test system: RPS6KA5(Kin.Dom.1-N-terminal)
- RUN CONDITIONS: concentration: 1 μM, replicates: in singlicate; n = 1
MEASURED PARAMETER: %Inh (%)
Number in %, nothing else.

Field: example entries. Status: answers known.
# MOLECULE, OBSERVED
records = [
    ("Cl.Nc1ncnc2occ(-c3ccc(NC(=O)Nc4cc(C(F)(F)F)ccc4F)cc3)c12", 63),
    ("[2H]C([2H])(c1cccc(C(F)(F)F)c1C)n1ccn2c(=O)nc(N3CCOCC3)cc12", 2),
    ("COc1cc2c(cc1OC[C@@H](O)CO)ncc1c3ccc(C#N)cc3[nH]c21", 0),
    ("COc1ccc(COc2cc(-n3cnc4ccccc43)sc2C(N)=O)cc1", 3),
    ("O=C(NCCNc1ccnc(Nc2ccc(F)cc2)n1)Nc1ccccc1F", 0),
    ("NS(=O)(=O)c1cccc(-c2ccc3ncc(N4CCOCC4)nc3c2)c1", 8),
    ("O=c1cc(N2CCOCC2)nc2n(Cc3cccc4ccccc34)ccn12", 0),
    ("Cc1nnc(-c2ccc3ncc(-c4ccc(S(C)=O)cc4)n3c2)o1 (stereo not drawn)", 0),
    ("O=C(NCCNc1ccnc(Nc2ccc(F)cc2)n1)c1cc2ccccc2s1", 4),
    ("CN(C(=O)c1ccc(-c2cc(-c3c[nH]nc3-c3ccccn3)ccn2)cc1)C1CCOCC1", 0),
]

Any idea what its %Inh is? The molecule is `COc1ccc(S(=O)(=O)NC2CCN(c3cc(C)nc(Nc4cccc(C#N)c4)n3)CC2)cc1.O=C(O)C(F)(F)F`
2

Continue with `O=C(Nc1n[nH]c2cc(-c3cccc(F)c3)ccc12)C1CC1`
0

Continue with `Cn1cc(-c2ccc3c(c2)CCN3C(=O)Cc2ccccc2Cl)c2c(N)ncnc21`
32

Continue with `CC(C)Oc1ccc2c(-c3ccnc(Nc4ccc(N5CCN(C)CC5)cc4)n3)cnn2n1`
0

Continue with `Nc1nccc(-c2c(-c3ccc(F)cc3)ncn2C2CCN(CC(F)(F)F)CC2)n1`
0

Continue with Cc1nnc(-c2ccc3occ(-c4ccc(C(C)O)cc4)c3c2)o1 (stereo not drawn)
20

Continue with `c1ccc(-c2n[nH]cc2-c2ccnc3ccccc23)nc1`
9

Continue with `NS(=O)(=O)c1cccc(-c2ccc3nccc(-c4cccc(S(N)(=O)=O)c4)c3c2)c1`
4
